Target: T1, UNK ZnF1-3 (human, UniProt Q9C0B0 31-174)
T1 sequence: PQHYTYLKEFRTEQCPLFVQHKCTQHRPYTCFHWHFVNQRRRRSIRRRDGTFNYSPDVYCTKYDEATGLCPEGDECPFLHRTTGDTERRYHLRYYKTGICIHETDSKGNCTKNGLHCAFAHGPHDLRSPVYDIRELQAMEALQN
Assay: nsRBNS (natural sequence RNA bind-n-seq); RBNS binding buffer (assumed for nsRBNS): 25 mM Tris pH 7.5, 150 mM KCl, 3 mM MgCl2, 0.01% Triton X-100, 500 ug/ml BSA, 20 U/ml SUPERase-In, 4 C; UNK is unkempt and MSI1 is Musashi-1; names of the RNAs are library labels; protein concentration not given here; high values mean tight binding
Over roughly 24,000 sequences, “enrichment r” has its median near 0.99; the highest 2% begin near 3.7. Many of the other results were omitted from the sample, so the highest values are more common in it than they were.
measurement kind: binding signal (enrichment R)
The figure you give is taken to be in enrichment R; do not add the unit.

// query What value of binding signal has been reported for the following binder? chr7:140404665:140404666:+_ENSG00000090266_ENST00000247866|hu_hu|hu_hu_hu_mus_False|28_98 (ssRNA) RNA: GGGAGUUCUACAGUCCGACGAUCUGCUCCUACUCGUAGGCUGAGUCUACAGUGUCAGUCCUCGUCAUCAGGAGGGAUUCCCAGUUCUUCAUCUGUCCACUGUGAAGGAUCAGGAUAUGAAAAGUGACCCAGCACAGCAUCCGACAACAGAGGAUUGAGCAUCA
// result 0.773

// query What value of binding signal has been reported for the following binder? chr13:51516861:51516862:+_ENSMUSG00000067586_ENSMUST00000087978|mus_mus|FALSE|FALSE (ssRNA) RNA: GGGAGUUCUACAGUCCGACGAUCCUUGGUGACAUAGAGAAGGGCAAGGCCAAUGAUGGAGCAGAACUUCUUGGCAGUGACCUAUAUACACCAGGAGUGACAUGAGGGGAAGUCUUUAGUUAGUCAGACCAGGGUUACCUAAGGCAACAGAGGAUUGAGCAUCA
// result 1.32

// query What value of binding signal has been reported for the following binder? chr1:244855233:244855234:+_ENSG00000121644_ENST00000302550|hu_mus|hu_hu_hu_mus_True|28_88 (ssRNA) RNA: GGGAGUUCUACAGUCCGACGAUCCAUCAGAUGGUAGGCGUUGCCCUUGUAUUCUUUCCCCAGUUCUUCUACAAUUUUCUCUAUAUCAUCUUCUAGAAAGUCCGUACUCCCUAAAACAACAGCUUCUUUAAAUUUAAAUGUUUCCAACAGAGGAUUGAGCAUCA
// result 1.19

// query What value of binding signal has been reported for the following binder? chr18:35731670:35731671:+_ENSMUSG00000037236_ENSMUST00000166793|perfect_dup|motif|central (ssRNA) RNA: GGGAGUUCUACAGUCCGACGAUCUGACCCUGUGAGUCCCUACUGAGAGAUGACUGCUGGAAUGACUUGGACAUUGUAGAACGGGCUCUUGUCUAUUUUAUAGAUUAAAAAAAAAAAUUUUUUUAAAGACGGCCAAAAAGAAAGCAACAGAGGAUUGAGCAUCA
// result 3.64

// query What value of binding signal has been reported for the following binder? 55347689_55347809_2221_3pUTR_ENSMUSG00000021488_ENSMUST00000099490|mouse|control|control (ssRNA) RNA: GGGAGUUCUACAGUCCGACGAUCACUCAGCAGUUUCAGGCUCCAUUGUCUUGGUAGAACCCAUUAAAUGGUCUGCAUGGGAAUUAGUAAUGAGGGAUUUCUGUUUCUCUUUUAUCCUGUUUGUGACAGGAUAUCUAGAAUACUCAACAGAGGAUUGAGCAUCA
// result 0.567

// query What value of binding signal has been reported for the following binder? chr2:9572718:9572719:+_ENSG00000119203_ENST00000238112|hu_mus|FALSE|FALSE (ssRNA) RNA: GGGAGUUCUACAGUCCGACGAUCGACGUGGCCGGCAUGGUAACACCAGAACUUGAUUCCUGCAACUUCCUUAACUUCAUGAAAAUUGAUGGUUUCGAUUUUGUCCAUGCUUUCUUCCAAGUCUGUCUCAGUGUACAGCAUGUCCAACAGAGGAUUGAGCAUCA
// result 0.798

// query What value of binding signal has been reported for the following binder? 34871406_34871526_3634_3pUTR_ENSMUSG00000037503_ENSMUST00000047534|mouse|control|control (ssRNA) RNA: GGGAGUUCUACAGUCCGACGAUCAUGGUGGUGGGUUUGCUUCUCCAGAGUCAAGGAGCUUACAGUUUCCAAUACUCCACAACUCUAAACUGCAAGCAGCAGCAGCCGAGGAAGGAAGGCCCCUAGCCUCAGGGACGGCAGCAGCAACAGAGGAUUGAGCAUCA
// result 1.48
